Items are presented alongside their recorded Activity.
# Test system: HT-29
# assay.details: Cytotoxicity against human HT-29 cells assessed as AUC-time curve providing 10% surviving fraction by clonogenic assay
# Type: functional
Number only, in µM·h; omit the unit.

CCN(CC)CCNc1n[n+]([O-])c2cc3c(cc2[n+]1[O-])OCC3 ... 58
CCc1n[n+]([O-])c2cc3c(cc2[n+]1[O-])CC(CCN1CCOCC1)C3 (stereo not given) ... 15.8
CCc1n[n+]([O-])c2cc3c(cc2[n+]1[O-])CC(CO)C3 (stereo not given) ... 49.7
[O-][n+]1nc(NCCN2CCCCC2)[n+]([O-])c2ccc3c(c21)CCC3 ... 27.2

Hello, please tell me recorded Activity for this one: [O-][n+]1nc(NCCN2CCCCC2)[n+]([O-])c2cc3c(cc21)CCC3 15.6

----------
# System: HT-29
# assay.details: Cytotoxicity against human HT-29 cells assessed as AUC-time curve providing 10% surviving fraction by clonogenic assay
# Type: functional
readout.label: log10 of Activity (log10 of the value in µM·h)
Log scale reminder: Activity in µM·h, then log10 taken.

CCN(CC)CCNc1n[n+]([O-])c2cc3c(cc2[n+]1[O-])CCC3 ... 1.56
CN(C)CCNc1n[n+]([O-])c2cc3c(cc2[n+]1[O-])OCC3 ... 1.64
[O-][n+]1nc(NCCCN2CCOCC2)[n+]([O-])c2cc3c(cc21)CCC3 ... 1.88
CC1Cc2cc3c(cc2C1)[n+]([O-])c(NCCCN1CCOCC1)n[n+]3[O-] (configuration not stated) ... 2.09

Hello, please tell me recorded log10 of Activity for this one: CCCN(CCC)CCNc1n[n+]([O-])c2cc3c(cc2[n+]1[O-])CCC3 1.50

Hello, please tell me recorded log10 of Activity for this one: CCN(CC)CCNc1n[n+]([O-])c2c3c(ccc2[n+]1[O-])CCC3 1.55

Hello, please tell me recorded log10 of Activity for this one: Nc1n[n+]([O-])c2cc3c(cc2[n+]1[O-])CCC3 2.03

Hello, please tell me recorded log10 of Activity for this one: CCCN(CCC)CCNc1n[n+]([O-])c2c3c(ccc2[n+]1[O-])CCC3 1.82

Hello, please tell me recorded log10 of Activity for this one: [O-][n+]1nc(NCCCN2CCOCC2)[n+]([O-])c2cc3c(cc21)CCCC3 1.62

----------
# assay.details: Solubility at 22 degC in culture medium in presence of 5% fetal calf serum
# Format: physicochemical
# details: culture medium with 5% fetal calf serum; read-out: solubility
readout.label: solubility

The cases that follow already have their solubility on record.
CC1Cc2cc3c(cc2C1)[n+]([O-])c(NCCCN1CCOCC1)n[n+]3[O-] (stereo unspecified) ... > 49 mM
CCNc1n[n+]([O-])c2cc3c(cc2[n+]1[O-])CN(C)CC3 ... > 47 mM

Hello, please tell me recorded solubility for this one: CN(C)CCNc1n[n+]([O-])c2cc3c(cc2[n+]1[O-])CCO3 > 48 mM

Hello, please tell me recorded solubility for this one: [O-][n+]1nc(NCCCN2CCOCC2)[n+]([O-])c2cc3c(cc21)OCC3 > 49 mM

Hello, please tell me recorded solubility for this one: CCc1n[n+]([O-])c2cc3c(cc2[n+]1[O-])CN(C)CC3 > 47 mM

Hello, please tell me recorded solubility for this one: CN(C)CCNc1n[n+]([O-])c2cc3c(cc2[n+]1[O-])CCCCC3 > 53 mM
